Please go through the items and note down their pIC50.
target.entity: FGFR2 (Homo sapiens, UniProt P21802, K310R/N549K)
Construct: in FGFR aberrations of AN3CA (FGFR2/k310R, N549K)
Sequence (P21802 22-821 K310R/N549K): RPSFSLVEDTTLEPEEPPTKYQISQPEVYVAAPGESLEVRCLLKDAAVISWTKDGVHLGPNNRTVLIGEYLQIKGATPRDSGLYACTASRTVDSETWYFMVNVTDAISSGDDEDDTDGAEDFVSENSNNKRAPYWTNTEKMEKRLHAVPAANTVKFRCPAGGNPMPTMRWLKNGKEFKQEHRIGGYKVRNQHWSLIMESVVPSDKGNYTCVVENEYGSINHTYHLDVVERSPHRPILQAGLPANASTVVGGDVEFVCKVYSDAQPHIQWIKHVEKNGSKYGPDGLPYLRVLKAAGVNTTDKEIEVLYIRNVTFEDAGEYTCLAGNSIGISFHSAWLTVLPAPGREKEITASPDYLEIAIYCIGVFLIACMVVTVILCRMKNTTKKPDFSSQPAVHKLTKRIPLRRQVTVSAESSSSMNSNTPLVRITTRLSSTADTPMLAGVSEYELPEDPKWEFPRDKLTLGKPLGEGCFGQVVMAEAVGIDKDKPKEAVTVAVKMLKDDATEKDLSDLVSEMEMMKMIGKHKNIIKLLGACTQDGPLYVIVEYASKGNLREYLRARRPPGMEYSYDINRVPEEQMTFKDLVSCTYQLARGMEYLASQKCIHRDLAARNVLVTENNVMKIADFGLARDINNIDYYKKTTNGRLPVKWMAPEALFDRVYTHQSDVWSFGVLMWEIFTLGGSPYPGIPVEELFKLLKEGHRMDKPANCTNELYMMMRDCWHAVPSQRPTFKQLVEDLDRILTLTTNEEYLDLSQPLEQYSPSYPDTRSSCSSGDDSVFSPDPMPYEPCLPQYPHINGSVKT
run.description: pERK potency assay (In Cell ELISA), AN3CA cells
test.context: pERK, AN3CA (FGFR2/k310R, N549K) cells, 3 hours
pIC50: −log10 of the molar value.

Known pIC50 results, listed for orientation:
C=CC(=O)N1CCC2(CC=C(c3c(-c4cnc(OC)c(F)c4)c4c(N)ncnc4n3C)CC2)CC1    8.00 to 9.00
C=CC(=O)N1CCC2(CC=C(c3c(-c4ncc(OC)cn4)c4c(N)ncnc4n3C)CC2)CC1    ≥ 9.00
C=CC(=O)N1CCC2(CC=C(c3c(-c4ncc(C5CCOC5)cn4)c4c(N)ncnc4n3C)CC2)CC1 (stereo not shown)    8.00 to 9.00
C=CC(=O)N1CCC2(CC=C(c3c(-c4ncc(OC5COC5)cn4)c4c(N)ncnc4n3C)CC2)CC1    8.00 to 9.00

Quick request: pIC50 for each listed item, please.
1. C=CC(=O)N1CCC2(CC=C(c3c(-c4ccc(OC5CC5)nc4)c4c(N)ncnc4n3C)CC2)CC1
2. C=CC(=O)N1CCC2(CC=C(c3c(-c4ncco4)c4c(N)ncnc4n3C)CC2)CC1

8.00 to 9.00
< 7.00

* * *

Tested on: AN3CA
run.description: 2D cell proliferation assay, AN3CA
Type: cell-based
test.context: Homo sapiens, AN3-CA, 96 hours, CTG, read-out: Cell Line, IC50 AN3CA
pIC50: −log10 of the molar value.
experimental.readout: pIC50

Known pIC50 results, listed for orientation:
C=CC(=O)N1CCC2(CC=C(c3c(-c4ccc(OC5CC5)nc4)c4c(N)ncnc4n3C)CC2)CC1    7.52 to 8.00
C=CC(=O)N1CCC2(CC=C(c3c(-c4ncc(C#N)cn4)c4c(N)ncnc4n3C)CC2)CC1    7.00 to 7.52
C=CC(=O)N1CCC2(CC=C(c3c(-c4ccc(Oc5nccc(C)n5)c(F)c4)c4c(N)ncnc4n3C)CC2)CC1    7.00 to 7.52

Quick request: pIC50 for each listed item, please.
1. C=CC(=O)N1CCC2(CC=C(c3c(-c4ncc(C(F)(F)F)cn4)c4c(N)ncnc4n3C)CC2)CC1
2. C=CC(=O)N1CCC2(CC=C(c3c(-c4ccc(OC5CCC5)nc4)c4c(N)ncnc4n3C)CC2)CC1
3. C=CC(=O)N1CCC2(CC=C(c3c(-c4ncc(C(F)F)cn4)c4c(N)ncnc4n3C)CC2)CC1
4. C=CC(=O)N1CCC2(CC=C(c3c(-c4ccc(OC)cc4)c4c(N)ncnc4n3C)CC2)CC1
5. C=CC(=O)N1CCC2(CC=C(c3c(-c4ccc(OC(F)F)cc4)c4c(N)ncnc4n3C)CC2)CC1
6. C=CC(=O)N1CCC2(CC=C(c3c(-c4ccc(F)cc4)c4c(N)ncnc4n3C)CC2)CC1
7. C=CC(=O)N1CCC2(CC=C(c3c(-c4ccc(Oc5ncccn5)cc4)c4c(N)ncnc4n3C)CC2)CC1

7.52 to 8.00
7.52 to 8.00
≥ 9.00
8.00 to 9.00
7.52 to 8.00
7.00 to 7.52
7.00 to 7.52

* * *

Please go through the items and note down their GI50.
target.entity: Ba/F3 FGFR2-V564F (Homo sapiens, UniProt P21802, V564F, cells depend on it)
Construct: fused on or other part: Q9H694 (Protein bicaudal C homolog 1)
Sequence (P21802 whole entry V564F, the tested form may be a part): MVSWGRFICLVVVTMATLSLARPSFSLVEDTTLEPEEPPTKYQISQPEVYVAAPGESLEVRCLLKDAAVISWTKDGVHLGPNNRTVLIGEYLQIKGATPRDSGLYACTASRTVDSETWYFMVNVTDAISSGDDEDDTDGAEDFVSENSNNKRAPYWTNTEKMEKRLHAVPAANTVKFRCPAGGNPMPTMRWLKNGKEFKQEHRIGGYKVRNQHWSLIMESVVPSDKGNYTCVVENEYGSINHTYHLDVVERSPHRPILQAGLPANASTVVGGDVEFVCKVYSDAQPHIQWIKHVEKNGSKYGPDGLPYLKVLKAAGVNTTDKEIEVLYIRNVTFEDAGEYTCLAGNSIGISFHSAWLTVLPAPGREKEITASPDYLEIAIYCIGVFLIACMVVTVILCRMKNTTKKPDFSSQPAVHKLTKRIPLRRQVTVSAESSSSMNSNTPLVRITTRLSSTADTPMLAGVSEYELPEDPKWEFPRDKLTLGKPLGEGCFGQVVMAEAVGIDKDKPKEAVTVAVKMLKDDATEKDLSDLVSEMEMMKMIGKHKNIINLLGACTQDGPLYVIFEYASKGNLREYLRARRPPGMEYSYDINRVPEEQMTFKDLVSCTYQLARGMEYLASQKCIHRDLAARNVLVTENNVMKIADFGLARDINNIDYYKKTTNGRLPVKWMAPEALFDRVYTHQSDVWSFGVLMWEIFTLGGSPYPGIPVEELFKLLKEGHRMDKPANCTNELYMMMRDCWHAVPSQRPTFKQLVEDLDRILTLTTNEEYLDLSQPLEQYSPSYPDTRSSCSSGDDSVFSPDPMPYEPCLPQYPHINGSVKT
run.description: 2D cell proliferation assay, Ba/F3 FGFR2-V564F
Format: cell-based, mouse
test.context: 96 hours, CTG, read-out: Cell Line, IC50 Ba/F3 FGFR2-V564F

Known GI50 results, listed for orientation:
C=CC(=O)N1CCC2(CC=C(c3c(-c4ncc(C(F)F)cn4)c4c(N)ncnc4n3C)CC2)CC1 [Example 56]    ≤ 1 nM
C=CC(=O)N1CCC2(CC=C(c3c(-c4ccc(F)cc4)c4c(N)ncnc4n3C)CC2)CC1 [Example 11]    30 to 100 nM
C=CC(=O)N1CCC2(CC=C(c3c(-c4cnc(OC)c(F)c4)c4c(N)ncnc4n3C)CC2)CC1 [Example 28]    10 to 30 nM

Now consider a different molecule.
Please fill in: GI50 reported for C=CC(=O)N1CCC2(CC=C(c3c(-c4ccc(OC5CCC5)nc4)c4c(N)ncnc4n3C)CC2)CC1 [Example 26] = 1 to 10 nM

* * *

target.entity: Ba/F3 FGFR2-N549K (Homo sapiens, UniProt P21802, N549K, cells depend on it)
Construct: fused on or other part: Q9H694 (Protein bicaudal C homolog 1)
Sequence (P21802 whole entry N549K, the tested form may be a part): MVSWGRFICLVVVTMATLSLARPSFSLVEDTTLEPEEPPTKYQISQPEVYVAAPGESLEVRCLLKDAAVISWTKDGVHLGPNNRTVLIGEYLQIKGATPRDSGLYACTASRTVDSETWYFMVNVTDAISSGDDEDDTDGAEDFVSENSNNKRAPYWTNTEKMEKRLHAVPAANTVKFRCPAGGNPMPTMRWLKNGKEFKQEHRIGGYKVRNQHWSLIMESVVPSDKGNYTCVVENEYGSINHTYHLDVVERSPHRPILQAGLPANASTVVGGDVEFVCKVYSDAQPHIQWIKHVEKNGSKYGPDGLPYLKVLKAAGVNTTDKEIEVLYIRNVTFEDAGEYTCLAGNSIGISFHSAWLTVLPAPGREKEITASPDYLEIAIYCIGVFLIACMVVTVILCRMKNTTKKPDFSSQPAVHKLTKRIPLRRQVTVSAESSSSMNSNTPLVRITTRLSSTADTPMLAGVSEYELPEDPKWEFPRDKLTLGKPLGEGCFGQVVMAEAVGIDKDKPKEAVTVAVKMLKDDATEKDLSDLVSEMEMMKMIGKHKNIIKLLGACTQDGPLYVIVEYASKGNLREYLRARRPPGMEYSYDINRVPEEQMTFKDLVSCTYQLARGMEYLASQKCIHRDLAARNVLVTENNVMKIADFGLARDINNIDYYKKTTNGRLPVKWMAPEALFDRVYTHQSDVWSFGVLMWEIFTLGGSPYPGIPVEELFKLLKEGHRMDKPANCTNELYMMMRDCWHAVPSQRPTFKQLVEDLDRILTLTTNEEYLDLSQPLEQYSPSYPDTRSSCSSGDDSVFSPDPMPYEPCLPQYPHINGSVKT
run.description: 2D cell proliferation assay, Ba/F3 FGFR2-N549K
Assay type: cell-based, mouse
test.context: 96 hours, CTG, read-out: Cell Line, IC50 Ba/F3 FGFR2-N549K
Please go through the items and note down their GI50.

Known GI50 results, listed for orientation:
C=CC(=O)N1CCC2(CC=C(c3c(C#N)c4c(N)ncnc4n3C)CC2)CC1    10 to 30 nM
C=CC(=O)N1CCC2(CC=C(c3c(-c4cnc(OC5CC5)c(F)c4)c4c(N)ncnc4n3C)CC2)CC1    1 to 10 nM
C=CC(=O)N1CCC2(CC=C(c3c(-c4ncc(F)cn4)c4c(N)ncnc4n3C)CC2)CC1    1 to 10 nM

Quick request: GI50 for each listed item, please.
1. C=CC(=O)N1CCC2(CC=C(c3c(-c4ccc(OC(F)F)nc4)c4c(N)ncnc4n3C)CC2)CC1
2. C=CC(=O)N1CCC2(CC=C(c3c(-c4ccc(OC5CCC5)nc4)c4c(N)ncnc4n3C)CC2)CC1
3. C=CC(=O)N1CCC2(CC=C(c3c(-c4ncccn4)c4c(N)ncnc4n3C)CC2)CC1
4. C=CC(=O)N1CCC2(CC=C(c3c(-c4ncc(OC)cn4)c4c(N)ncnc4n3C)CC2)CC1

1: 1 to 10 nM; 2: 1 to 10 nM; 3: 1 to 10 nM; 4: 1 to 10 nM

* * *

Please go through the items and note down their IC50.
target.entity: FGFR2 (Homo sapiens, UniProt P21802, K310R/N549K)
Construct: in FGFR aberrations of AN3CA (FGFR2/k310R, N549K)
run.description: pERK potency assay (In Cell ELISA), AN3CA cells
test.context: pERK, AN3CA (FGFR2/k310R, N549K) cells, 3 hours

Known IC50 results, listed for orientation:
C=CC(=O)N1CCC2(CC=C(c3c(-c4ccc(F)cc4)c4c(N)ncnc4n3C)CO2)CC1 [Example 41]    1 to 10 nM
C=CC(=O)N1CC2(CC(c3c(-c4ccc(Oc5ncccn5)cc4)c4c(N)ncnc4n3C)C2)C1 [Example 3]    > 100 nM
C=CC(=O)N1CCC2(CC=C(c3c(-c4ncc(C#N)cn4)c4c(N)ncnc4n3C)CC2)CC1 [Example 51]    ≤ 1 nM
C=CC(=O)N1CCC2(CC=C(c3c(-c4ncc5c(n4)CCO5)c4c(N)ncnc4n3C)CC2)CC1 [Example 48]    1 to 10 nM
C=CC(=O)NC1CC2(CC=C(c3c(-c4ccc(Oc5ncccn5)cc4)c4c(N)ncnc4n3C)CC2)C1 (stereo not shown) [Example 9]    10 to 30 nM
C=CC(=O)N1CCC2(CC=C(c3c(-c4ccc(OC5CC5)cc4)c4c(N)ncnc4n3C(F)F)CC2)CC1 [Example 36]    1 to 10 nM
C=CC(=O)N1CCC2(CC=C(c3c(-c4ccc(OC)nc4)c4c(N)ncnc4n3C)CC2)CC1 [Example 30]    ≤ 1 nM
C=CC(=O)N1CCC2(CC=C(c3c(-c4ccc(OC5CCCC5)nc4)c4c(N)ncnc4n3C)CC2)CC1 [Example 24]    1 to 10 nM
C=CC(=O)N1CCC2(CC=C(c3c(-c4ncc(C(F)(F)F)cn4)c4c(N)ncnc4n3C)CC2)CC1 [Example 42]    ≤ 1 nM

Now consider a different compound.
Please fill in: IC50 reported for C=CC(=O)N1CCC2(CC=C(c3c(-c4ncccc4F)c4c(N)ncnc4n3C)CC2)CC1 [Example 49] = 30 to 100 nM

* * *

target.entity: FGFR2 (Homo sapiens, UniProt P21802, K310R/N549K)
Construct: in FGFR aberrations of AN3CA (FGFR2/k310R, N549K)
run.description: pERK potency assay (In Cell ELISA), AN3CA cells
test.context: pERK, AN3CA (FGFR2/k310R, N549K) cells, 3 hours
pIC50: −log10 of the molar value.
experimental.readout: pIC50

Known pIC50 results, listed for orientation:
C=CC(=O)N1CCC2(CC=C(c3[nH]c4ncnc(N)c4c3-c3ncccn3)CC2)CC1    8.00 to 9.00
C=CC(=O)N1CCC2(CC=C(c3c(-c4ccnnc4)c4c(N)ncnc4n3C)CC2)CC1    < 7.00
C=CC(=O)N1CCC2(CC=C(c3c(C4COC4)c4c(N)ncnc4n3C)CC2)CC1    ≥ 9.00
C=CC(=O)N1CCC2(CC=C(c3c(-c4ccc(OC)cc4)c4c(N)ncnc4n3C)CC2)CC1    ≥ 9.00
C=CC(=O)N1CCC2(CC=C(c3c(-c4cccc(OC)c4)c4c(N)ncnc4n3C)CC2)CC1    8.00 to 9.00
C=CC(=O)N1CCC2(CC=C(c3c(-c4ncccn4)c4c(N)ncnc4n3C)CC2)CC1    8.00 to 9.00
C=CC(=O)N1CCC2(CC=C(c3c(-c4cccnc4)c4c(N)ncnc4n3C)CC2)CC1    7.52 to 8.00
[2H]C([2H])([2H])Oc1ccc(-c2c(C3=C(F)CC4(CC3)CCN(C(=O)C=C)CC4)n(C)c3ncnc(N)c23)cc1    ≥ 9.00

Quick request: pIC50 for each listed item, please.
1. C=CC(=O)N1CCC2(CC=C(c3c(-c4cncc(F)c4)c4c(N)ncnc4n3C)CC2)CC1
2. C=CC(=O)N1CCC2(CC=C(c3c(-c4ccc(Oc5ncccn5)cc4)c4c(N)ncnc4n3C)CC2)CC1

1. 8.00 to 9.00
2. 8.00 to 9.00
